System: SEM cells
Method description: cell viability relative to DMSO control; higher = less cytotoxic
Assay conditions: RPMI 5 mM glucose + 10% dialyzed FBS; 48 h; 0.0211 µM
Readout name: cell viability

- Molecule: "C=C(C)[C@H]1Cc2c(ccc3c2O[C@@H]2COc4cc(OC)c(OC)cc4[C@@H]2C3=O)O1"
  Readout name: "cell viability"
  Result value: "106%"

State recorded cell viability for all listed molecules.
1. C\C1=C(\C=C(C#N)/C(=O)N1)C2=C[N]3C=CN=C3C=C2
2. O=C(Nc1ccccc1-c1cn2c(CN3CCNCC3)csc2n1)c1cnc2ccccc2n1

1. 88%
2. 86.5%

---

System: SEM cells
Method description: cell viability relative to DMSO control; higher = less cytotoxic
Assay conditions: RPMI 5 mM glucose + 10% FBS; 48 h; 15.4 µM
Readout name: cell viability (%)
Answers are plain numbers, in %.

Please review the following examples before continuing.
- Molecule: "OC1CCC(Nc2ncc3nc(Nc4c(F)cc(F)cc4F)n([C@@H]4CCOC4)c3n2)CC1 (stereo not given in full)"
  Unit spec: "%"
  cell viability: 40.9
- Molecule: "CC[C@@]1(O)C(=O)OC\\C2=C1\\C=C3/N(CC4=CC5=C(C=CC(=C5CN(C)C)O)N=C34)C2=O"
  Unit spec: "%"
  cell viability: 4.3
- Molecule: "CC(C)(C(=O)NCC(F)(F)C(F)(F)F)C(=O)N[C@@H]1C(=O)Nc2ccccc2-c2ccccc21"
  Unit spec: "%"
  cell viability: 72.7
- Molecule: "CNc1nccc(-c2cccnc2Oc2cc(C(=O)Nc3cccc(C(F)(F)F)c3)ccc2C)n1"
  Unit spec: "%"
  cell viability: 72.4
- Molecule: "Cc1c(NC(=O)OC[C@@H]2COCCN2)cn2ncnc(Nc3ccc4c(cnn4Cc4cccc(F)c4)c3)c12"
  Unit spec: "%"
  cell viability: 15.4

Hi there! I need cell viability for each item below, if you can.
1. FC1=CC=C(SC/2=N/N3\C=N/C(=O)/C(=C3/C=C2)C4=C(Cl)C=CC=C4Cl)C(=C1)F
2. Nc1ncnc2c1c(-c1cnc3[nH]ccc3c1)nn2C1CCCC1
3. COc1cc2ncnc(Nc3ccc(F)c(Cl)c3)c2cc1NC(=O)/C=C/CN1CCCCC1
4. Cc1cn(-c2cc(NC(=O)c3ccc(C)c(Nc4nccc(-c5cccnc5)n4)c3)cc(C(F)(F)F)c2)cn1
5. Cc1cn([C@@H]2O[C@H](CO)[C@@H](O)[C@@H]2F)c(=O)[nH]c1=O

[62.9, 24.7, 80.2, 21.4, 122]

---

System: SEM cells
Method description: cell viability relative to DMSO control; higher = less cytotoxic
Assay conditions: HPLM + 10% dialyzed FBS; 48 h; 0.19 µM
For each of the compounds below, state its cell viability.
Answers are plain numbers, in %.

Some solved entries appear below for comparison.
- Compound: "Nc1nc(N)c2nc(CNc3ccc(C(=O)NC(CCC(=O)O)C(=O)O)cc3)cnc2n1 (centres undefined)"
  Readout name: "cell viability"
  Result value: 36.6
- Compound: "COC(=O)[C@@H]1[C@H]2C[C@H]3c4[nH]c5ccccc5c4CCN3C[C@@H]2CC[C@@H]1O"
  Readout name: "cell viability"
  Result value: 110
- Compound: "COc1cc2ncnc(Nc3ccc(F)c(Cl)c3)c2cc1NC(=O)/C=C/CN1CCCCC1"
  Readout name: "cell viability"
  Result value: 99.1

State recorded cell viability for all listed compounds.
1. COc1ccc(-n2nc(C(N)=O)c3c2C(=O)N(c2ccc(N4CCCCC4=O)cc2)CC3)cc1
2. O=C(O)c1ccc2c(c1)nc(Nc1cccc(Cl)c1)c1ccncc12

[137, 101]

For each listed entry, give its cell viability.
1. O=C(Nc1c(Cl)cncc1Cl)c1ccc(OC(F)F)c(OCC2CC2)c1
2. CC(C)C[C@@H](C=O)NC(=O)[C@H](CC(C)C)NC(=O)[C@H](CC(C)C)NC(=O)OCc1ccccc1
3. CN1C[C@H]2c3ccccc3Oc3ccc(Cl)cc3[C@@H]2C1
4. O=C(O)C1=NC(C(=O)O)CC(/C=C/N2c3cc(O)c(OC4OC(CO)C(O)C(O)C4O)cc3CC2C(=O)O)=C1 (centres undefined)

[102, 139, 84, 113]

---

Tested on: SEM cells
Method description: cell viability relative to DMSO control; higher = less cytotoxic
Assay conditions: RPMI 5 mM glucose + 10% FBS; 48 h; 1.71 µM
Hi there, I'd appreciate the recorded cell viability for every entry that follows.
One number for each entry, in %.

Solved entries:
- Molecule: "COc1cc2ncnc(Nc3cc(Br)c(O)c(Br)c3)c2cc1OC"
  Unit spec: "%"
  cell viability: 124
- Molecule: "COc1ccc(-c2ccc3c(N4CCOC[C@@H]4C)nc(N4CCOC[C@@H]4C)nc3n2)cc1CO"
  Unit spec: "%"
  cell viability: 55.8
- Molecule: "COc1ncc(-c2ccc3nccc(-c4ccnnc4)c3c2)cc1N[S+](=O)([O-])c1ccc(F)cc1F"
  Unit spec: "%"
  cell viability: 19.2

List cell viability for every entry below, keeping the order given.
1. C[S+](=O)([O-])N1CCc2c(-c3cnc(N)nc3)nc(N3CCOCC3)nc21
2. CCOC(=O)\C1=C(/C)N\C2=C(C1C3=CC=C(C=C3)C4=CC=CC=C4)\C(=O)CC(C)(C)C2 (centres undefined)
3. CNC(=O)c1ccc(N2C(=S)N(c3ccc(C#N)c(C(F)(F)F)c3)C(=O)C23CCC3)cc1F
4. C[C@@H]1[C@H](O)[C@@H](C)/C=C/C=C/C=C/C=C/C=C/C=C/C=C/[C@H](O[C@@H]2O[C@H](C)[C@@H](O)[C@H](N)[C@@H]2O)C[C@@H]2O[C@](O)(C[C@@H](O)C[C@@H](O)[C@H](O)CC[C@@H](O)C[C@@H](O)CC(=O)O[C@H]1C)C[C@H](O)[C@H]2C(=O)O
5. CCC(C)(C)c1ccc(CC(C)CN2C[C@@H](C)O[C@@H](C)C2)cc1 (some centres undefined)
6. NC/1=N/C2=C([NH]C=N2)C(=S)N1

[50.5, 112, 91.7, 108, 86.6, 103]

---

Test system: P12-Ichikawa
Method description: cell viability relative to DMSO control; higher = less cytotoxic
Assay conditions: RPMI 5 mM glucose + 10% FBS; 48 h; 0.00702 µM
Readout name: cell viability (%)
Answers are plain numbers, in %.

- Compound: "O=C(Nc1ccc(F)c(C(F)(F)F)c1)Nc1nnc(-c2ccncc2)s1"
  Result value: 125
- Compound: "CCn1c(-c2nonc2N)nc2cnc(Oc3cccc(NC(=O)c4ccc(OCCN5CCOCC5)cc4)c3)cc21"
  Result value: 107
- Compound: "Cc1cn(-c2cc(NC(=O)c3ccc(C)c(Nc4nccc(-c5cccnc5)n4)c3)cc(C(F)(F)F)c2)cn1"
  Result value: 114
- Compound: "O=C(O)C1=NC(C(=O)O)CC(/C=C/N2c3cc(O)c(OC4OC(CO)C(O)C(O)C4O)cc3CC2C(=O)O)=C1 (configuration not stated)"
  Result value: 106

# batch size: 3; output cell viability per entry
1. CN1\C(=C(\O)C2=CC=CC=C2[S+]1([O-])=O)C(=O)NC3=NC=C(C)S3
2. CN1CCCN=C1/C=C/c1cccs1.O=C(O)c1cc2ccccc2c(Cc2c(O)c(C(=O)O)cc3ccccc23)c1O
3. CC(C)CC(=O)N[C@H](C(=O)N[C@H](C(=O)N[C@@H](CC(C)C)[C@@H](O)CC(=O)N[C@@H](C)C(=O)N[C@@H](CC(C)C)[C@@H](O)CC(=O)O)C(C)C)C(C)C

88
114
121

I need cell viability for every entry listed below, if you could help.
1. CN(C)[C@H]\1[C@@H]2C[C@H]3C(=C(O)\[C@]2(O)C(=O)\C(=C1O)C(N)=O)/C(=O)C4=C(O)C=CC=C4[C@@]3(C)O
2. C[N]1C=C(C2=C1C=CC=C2)\C3=C(\C(=O)NC3=O)C4=C5CC(CN)CC[N]5C6=C4C=CC=C6 (configuration not stated)

[109, 101]

Working through the 4 compounds below one at a time, give cell viability for each.
1. Nc1nc(N)c2nc(CNc3ccc(C(=O)NC(CCC(=O)O)C(=O)O)cc3)cnc2n1 (configuration not stated)
2. Cc1c(NC(=O)OC[C@@H]2COCCN2)cn2ncnc(Nc3ccc4c(cnn4Cc4cccc(F)c4)c3)c12
3. CC(C)NC[C@@H](C(=O)N1CCN(c2ncnc3c2[C@H](C)C[C@H]3O)CC1)c1ccc(Cl)cc1
4. O=c1[nH]c2ccccc2n1C1CCN(Cc2ccc(-c3nc4cc5nc[nH]c5cc4nc3-c3ccccc3)cc2)CC1

[103, 90.8, 111, 110]

---

Test system: NOMO1
Method description: cell viability relative to DMSO control; higher = less cytotoxic
Assay conditions: RPMI 5 mM glucose + 10% dialyzed FBS; 48 h; 15.4 µM
Readout name: cell viability (%)
Answers are plain numbers, in %.

Example entries and their recorded answers appear below.
- Compound: "C[C@]1(c2nc3c(C(N)=O)cccc3[nH]2)CCCN1"
  Assay target: "NOMO1"
  Unit spec: "%"
  cell viability: 77.4
- Compound: "CCN1\\C=C(\\C(O)=O)C(=O)C2=CC=C(C)N=C12"
  Assay target: "NOMO1"
  Unit spec: "%"
  cell viability: 81.6
- Compound: "C/C=C1\\C2C=C(C)CC1(N)c1ccc(=O)[nH]c1C2 (stereo not drawn)"
  Assay target: "NOMO1"
  Unit spec: "%"
  cell viability: 98.8
- Compound: "O=C(c1ccc(Nc2nccc(-c3cc4ccccc4s3)n2)cc1)N1CCC(N2CCCC2)CC1"
  Assay target: "NOMO1"
  Unit spec: "%"
  cell viability: 80.2
- Compound: "Cc1cnc(NC(=O)Nc2cc(Br)c(C)cc2OC[C@@H]2CNCCO2)cn1"
  Assay target: "NOMO1"
  Unit spec: "%"
  cell viability: 32.8

For every item below, please supply its cell viability.
1. C#C[C@]1(O)CC[C@H]2[C@@H]3CCc4cc(O)ccc4[C@H]3CC[C@@]21C
2. CN1\C(=C(\O)C2=CC=CC=C2[S+]1([O-])=O)C(=O)NC3=NC=C(C)S3
3. COC1=CC=C(C=C1)C/2=C/OC3=C(C(=CC(=C3)O)O)C2=O
4. C[C@@]12C[C@@]3(O)O[C@@H](O1)[C@]1(COC(=O)c4ccccc4)[C@H]3C[C@@]12O[C@@H]1O[C@H](CO)[C@@H](O)[C@H](O)[C@H]1O
5. C[C@]12CCC(=O)C=C1CC[C@@H]1[C@@H]2CC[C@@]2(C)[C@H]1CC[C@]2(C)O

1: 71.3; 2: 92.7; 3: 143; 4: 110; 5: 91.6

Give me cell viability for each of these compounds, listed below.
1. CC(C)=CC[C@@H](O)C/1=C/C(=O)C2=C(O)C=CC(=C2C1=O)O
2. CC(C)C[C@H](NC(=O)[C@H](CCc1ccccc1)NC(=O)CN1CCOCC1)C(=O)N[C@@H](Cc1ccccc1)C(=O)N[C@@H](CC(C)C)C(=O)[C@@]1(C)CO1
3. CN(NC(=O)CC(=O)NN(C)C(=S)c1ccccc1)C(=S)c1ccccc1

[15.3, 0.526, 2.79]

Below is a list of compounds. For each, state its recorded cell viability.
1. CNC1CCC(N(Cc2cccc(-c3ccncc3)c2)C(=O)c2sc3c(F)ccc(F)c3c2Cl)CC1 (stereo not drawn)
2. Cc1cccc(Nc2nc(-c3ccncc3)cs2)c1
3. CN[C@@H]1[C@H](O)[C@H](NC)[C@H]2O[C@@]3(O)C(=O)C[C@@H](C)O[C@H]3O[C@@H]2[C@H]1O
4. N=C(NCCCCCCNC(=N)NC(=N)Nc1ccc(Cl)cc1)NC(=N)Nc1ccc(Cl)cc1

108
134
103
85.6

Complete the entry with cell viability for C\C1=C(\C=C(C#N)/C(=O)N1)C2=C[N]3C=CN=C3C=C2
85.3
